Attribution: ChEMBL document CHEMBL3390845

This listing pairs compounds with measured HC50 at 24 h.
test: Hemolytic activity in human RBC assessed as hemoglobin release after 24 hrs by spectrophotometry; format: ADME, cell-based, Erythrocyte; settings: human red blood cells (RBC), read-out: ID50
Parameter: HC50 at 24 h

C=CCNC(=S)N/N=C/c1ccc(OCc2ccc3c(c2)=[N+]([O-])C(C)(C)[N+]=3[O-])cc1 > 100 µM
N=C(N)N/N=C/c1cccc(OCc2ccc3no[n+]([O-])c3c2)c1 > 100 µM
NC(=S)N/N=C/c1ccc(OCc2ccc3no[n+]([O-])c3c2)cc1 > 200 µM
[O-][n+]1onc2ccc(COc3ccccc3/C=N\NC(=S)Nc3ccccc3)cc21 > 200 µM
NC(=O)N/N=C\c1ccccc1OCc1ccc2no[n+]([O-])c2c1 > 100 µM
CC(=O)c1ccccc1OCc1ccc2no[n+]([O-])c2c1 > 200 µM
